- SUBJECT_OF_TEST: human CD3 (human, UniProt P07766 23-207; P04234 22-171; P09693 23-182)
- Sequence (P07766 23-207, chain 1 of 3): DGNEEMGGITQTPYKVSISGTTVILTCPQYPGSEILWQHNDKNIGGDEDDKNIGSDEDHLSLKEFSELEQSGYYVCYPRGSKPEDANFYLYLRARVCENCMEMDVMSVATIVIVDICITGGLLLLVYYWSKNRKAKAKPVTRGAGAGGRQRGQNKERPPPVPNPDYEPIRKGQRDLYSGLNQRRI
- Sequence (P04234 22-171, chain 2 of 3): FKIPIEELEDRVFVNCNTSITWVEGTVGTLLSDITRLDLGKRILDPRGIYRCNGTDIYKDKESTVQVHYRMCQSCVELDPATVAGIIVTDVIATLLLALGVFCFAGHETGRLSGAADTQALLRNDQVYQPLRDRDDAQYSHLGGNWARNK
- Sequence (P09693 23-182, chain 3 of 3): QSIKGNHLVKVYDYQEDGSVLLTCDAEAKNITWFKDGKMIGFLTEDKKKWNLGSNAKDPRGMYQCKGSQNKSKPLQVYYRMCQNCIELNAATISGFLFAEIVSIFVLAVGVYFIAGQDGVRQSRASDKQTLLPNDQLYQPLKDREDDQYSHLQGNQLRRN
- PROTOCOL_DESCRIPTION: cell-based or functional assay
The entries below come with measured CD4 EC50 (nM); CD69/CD25 on human T cells, plate-coated antibody values attached.
Value expressed in nM; do not type the unit.

Solved cases (2 shown):
>>> reported_value("mAb 113 (antibody, V domains shown) VH: EVQLVESGGGLVKTGGSLRLSCVASGFSFKKAWMNWVRQAPGKGLEWVGRIKRNTDGGTTDYAAPVKGRFTLSRDDSKNTLYLQMNSLKTEDTAVYYCTTLDSSSWYVGYYYMDVWGKGTTVTVSS VL: DIQMTQSPSSVSASVGDRVTITCRASQDINNWLAWYQQKPGKAPKILIYTASSLQSGVPSRFSGSGSGTDFTLTISSLQPEDFATYYCQQAHSLPITFGQGTRLEIK")
8.81
>>> reported_value("mAb 52 (antibody, V domains shown) VH: QVQLVQSGAEVKKPGASVKVSCKASGYTFTSHDINWVRQATGQGLEWMGWLNPNSGKTGYAQKFQGRVTMARDTSMYTADMELSSLRFEDTAVYYCARVGHYDMWPGFFSFDYWGQGTLVTVSS VL: DIQMTQSPSSLSASVGDRIIITCRASQDIRNDLGWYQQKPGKAPKRLIYAASSLQSGVPSRFSGSRSGTEFTLTISSLHPEDFATYYCLQHRSYPYTFGQGTNLEIK")
8.79

// below: CD4 EC50 (nM); CD69/CD25 on human T cells, plate-coated antibody requested for another binder
Prompt line: Output measured CD4 EC50 (nM); CD69/CD25 on human T cells, plate-coated antibody for this item: mAb 67 (antibody, V domains shown) VH: EVQLVESGGDLVQPGRSLRLSCAASGFTFDDCVIHWVRQAPGKGLEWVSGITWNSGRIGYADSVKGRFTISRDNAKNSLYLQMNSLRVEDTALYYCAKEGNYDFWSTYYRGYFDLWGRGTLVTVSS VL: DIQMTQSPSSLSASVGDRVTITCRASQGIRNDLGWYQQKPGIAPKRLIYAASSLQGGVPLRFSGSGSGTEFTLTISSLQPEDFATYYCLQHNSYPYTFGQGTKLEIK
Response line: 22

Values from patent US20230295310A1
